target: T1, Rat EphA2 (ligand binding), C-terminal polyHis (Rat); test: FP competition vs Reference Compound C (Study 2)
T1 construct: In-house
*1 amine or outer side, *2 acyl side, *3 side chain or, on linkers, in order; H or OH if unused. Bridges are numbered along the chain shown (N, C = ends). Where no end group is shown, it is not given here. [ ]: non-standard residue; d: D form. TATA = O=C(CC[*:1])N1CN(C(=O)CC[*:2])CN(C(=O)CC[*:3])C1; Hyp = O=C(O)[C@@H]1C[C@@H](O)CN1; hArg = N=C(N)NCCCC[C@H](N)C(=O)O; βAla = NCCC(=O)O; Sar = CNCC(=O)O
Kindly supply the reported Ki values for the records listed here.
One number for each entry, in nM.

| BINDER | Ki (nM) |
| --- | --- |
| [βAla][Sar][Sar][Sar][Sar][Sar][Sar][Sar][Sar][Sar][Sar]A[hArg]DC[Hyp]LVNPLCLHP[dD]W[hArg]C (linker 15-22-29 via TATA; not fully specified (N-terminus, C-terminus); numbers in words are those of the source; also: DM1-SS(SO3H)- conjugate, site not given here, Bicycle drug conjugate (BDC)) [BCY6173] | 2.5 |
| AXDCPLVNPLCLHPGWTC (not fully specified; as BCY6014 (N-terminal (β-Ala)-Sar10; HArg; TATA scaffold on the 3 Cys) + ValLys-MMAE, Bicycle drug conjugate (BDC)) [BCY6061] | 14.2 |
| AXDCPLVNPLCLHPGWTC (not fully specified; as BCY6014 (N-terminal (β-Ala)-Sar10; HArg; TATA scaffold on the 3 Cys) + ValCit-MMAE, Bicycle drug conjugate (BDC)) [BCY6033] | 13.4 |
| [βAla][Sar][Sar][Sar][Sar][Sar][Sar][Sar][Sar][Sar][Sar]A[hArg]DC[Hyp]LVNPLCLHP[dD]W[hArg]C (linker 15-22-29 via TATA; not fully specified (N-terminus, C-terminus); also: ValCit-MMAE conjugate, site not given here, Bicycle drug conjugate (BDC); also called BT5528) [BCY6136] | 3.2 |
| [βAla][Sar][Sar][Sar][Sar][Sar][Sar][Sar][Sar][Sar][Sar]A[hArg]DC[Hyp]LVNPLCLHP[dD]W[hArg]C (linker 15-22-29 via TATA; not fully specified (N-terminus, C-terminus); also: ValLys-MMAE conjugate, site not given here, Bicycle drug conjugate (BDC)) [BCY6174] | 3 |

Provide the reported Ki of each entry below, same order.
1. AXDCPLVNPLCLHPGWTC (not fully specified; as BCY6014 (N-terminal (β-Ala)-Sar10; HArg; TATA scaffold on the 3 Cys) + DM1-SS(SO3H)-, Bicycle drug conjugate (BDC)) [BCY6082]
2. [βAla][Sar][Sar][Sar][Sar][Sar][Sar][Sar][Sar][Sar][Sar]A[hArg]DC[Hyp]LVNPLCLHP[dD]W[hArg]C (linker 15-22-29 via TATA; not fully specified (N-terminus, C-terminus); numbers in words are those of the source; also: DM1-SS- conjugate, site not given here, Bicycle drug conjugate (BDC)) [BCY6135]

13.9
2.9

Tell me its Ki given AXDCPLVNPLCLHPGWTC (not fully specified; as BCY6014 (N-terminal (β-Ala)-Sar10; HArg; TATA scaffold on the 3 Cys) + DM1-SS-, Bicycle drug conjugate (BDC)) [BCY6031] as the entry.
20
